# Test system: TMD5
# Measurement Description: selective drug sensitivity score (sDSS, relative to normal bone marrow) (sDSS (score)); higher = more potent and effective on the cell line relative to normal bone marrow cells;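 further: ALL cell lines in 384-well plates, five doses spanning 10,000-fold, each plate scaled between vehicle and 100 µmol/L benzalkonium chloride controls, sDSS an adapted area-under-curve metric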
# Conditions: 72 h

[
  {
    "Compound": "Cc1sc2c(c1C)C(c1ccc(Cl)cc1)=N[C@@H](CC(=O)NCCCCNC(=O)COc1cccc3c1C(=O)N(C1CCC(=O)NC1=O)C3=O)c1nnc(C)n1-2 (some centres not stated) [dBET1] (top concentration 10000 nM)",
    "selective drug sensitivity score": -13.8
  },
  {
    "Compound": "Cc1nc(NC(=O)N2CCC[C@H]2C(N)=O)sc1-c1ccnc(C(C)(C)C(F)(F)F)c1 [Alpelisib] (top concentration 2500 nM)",
    "selective drug sensitivity score": -0.82
  },
  {
    "Compound": "C[C@@H](Nc1cc(F)cc(F)c1)c1cc(C(=O)N(C)C)cc2c(=O)cc(N3CCOCC3)oc12 [AZD-8186] (top concentration 1000 nM)",
    "selective drug sensitivity score": -0.26
  },
  {
    "Compound": "Cn1cnc2c(F)c(Nc3ccc(Br)cc3Cl)c(C(=O)NOCCO)cc21 [Selumetinib] (top concentration 10000 nM)",
    "selective drug sensitivity score": 3.1
  },
  {
    "Compound": "O=C1NC(=O)[C@@H](c2cn3c4c(cccc24)CCC3)[C@@H]1c1c[nH]c2ccccc12 [Tivantinib] (top concentration 1000 nM)",
    "selective drug sensitivity score": 5.38
  },
  {
    "Compound": "CCC1=C[C@@H]2CN(C1)Cc1c([nH]c3ccccc13)[C@@](C(=O)OC)(c1cc3c(cc1OC)N(C)[C@H]1[C@@](O)(C(=O)OC)[C@H](OC(C)=O)[C@]4(CC)C=CCN5CC[C@]31[C@@H]54)C2 [Vinorelbine] (top concentration 10000 nM)",
    "selective drug sensitivity score": 13.4
  },
  {
    "Compound": "CN1CCN(C2CCC(n3cc(-c4ccc(Oc5ccccc5)cc4)c4c(N)ncnc43)CC2)CC1 (configuration not stated) (top concentration 10000 nM)",
    "selective drug sensitivity score": 10.2
  }
]

---

# System: COG-LL-355h
# Measurement Description: selective drug sensitivity score (sDSS, relative to normal bone marrow) (sDSS (score)); higher = more potent and effective on the cell line relative to normal bone marrow cells
# Conditions: 72 h
Label rule, in plain words: selective drug sensitivity score of 2 and up is class 1, under 2 is class 0.

[
  {
    "Compound": "O=C(Nc1cnn2ccc(N3CCC[C@@H]3c3cc(F)ccc3F)nc12)N1CC[C@H](O)C1 [Larotrectinib] (top concentration 1000 nM)",
    "Assigned Label": "class 0"
  },
  {
    "Compound": "CCOc1ccn(-c2ccc(F)cc2)c(=O)c1C(=O)Nc1ccc(Oc2ccnc(N)c2Cl)c(F)c1 (top concentration 2500 nM)",
    "Assigned Label": "class 0"
  },
  {
    "Compound": "C[C@@]1(C(=O)Nc2ccc(F)nc2)CCCN1c1nc(Nc2cc(C3CC3)n[nH]2)c2cccn2n1 (top concentration 10000 nM)",
    "Assigned Label": "class 1"
  },
  {
    "Compound": "CC(=O)c1c(C)c2cnc(Nc3ccc(N4CCNCC4)cn3)nc2n(C2CCCC2)c1=O [Palbociclib] (top concentration 10000 nM)",
    "Assigned Label": "class 1"
  },
  {
    "Compound": "COc1c(C)cnc(Cn2cnc3c(Cl)nc(N)nc32)c1C [BIIB021] (top concentration 10000 nM)",
    "Assigned Label": "class 0"
  },
  {
    "Compound": "C[C@@H](Nc1cc(F)cc(F)c1)c1cc(C(=O)N(C)C)cc2c(=O)cc(N3CCOCC3)oc12 [AZD-8186] (top concentration 1000 nM)",
    "Assigned Label": "class 1"
  },
  {
    "Compound": "CO[C@H]1C[C@@H]2CC[C@@H](C)[C@@](O)(O2)C(=O)C(=O)N2CCCC[C@H]2C(=O)O[C@H]([C@H](C)C[C@@H]2CC[C@@H](OCCO)[C@H](OC)C2)CC(=O)[C@H](C)/C=C(\\C)[C@@H](O)[C@@H](OC)C(=O)[C@H](C)C[C@H](C)/C=C/C=C/C=C/1C [Everolimus] (top concentration 100 nM)",
    "Assigned Label": "class 0"
  },
  {
    "Compound": "CO[C@@H]1[C@H](N(C)C(=O)c2ccccc2)C[C@H]2O[C@]1(C)n1c3ccccc3c3c4c(c5c6ccccc6n2c5c31)C(=O)NC4 [Midostaurin] (top concentration 10000 nM)",
    "Assigned Label": "class 1"
  },
  {
    "Compound": "C=CC(=O)Nc1cccc(Nc2nc(Nc3ccc(N4CCN(C(C)=O)CC4)cc3OC)ncc2C(F)(F)F)c1 [Rociletinib] (top concentration 10000 nM)",
    "Assigned Label": "class 1"
  },
  {
    "Compound": "Cn1ncc(Cl)c1-c1cc(C(=O)N[C@H](CN)Cc2ccc(F)c(F)c2)oc1Cl [Uprosertib] (top concentration 10000 nM)",
    "Assigned Label": "class 1"
  },
  {
    "Compound": "COc1ccc(-c2ccc3c(N4CCOC[C@@H]4C)nc(N4CCOC[C@@H]4C)nc3n2)cc1CO [AZD8055] (top concentration 10000 nM)",
    "Assigned Label": "class 1"
  },
  {
    "Compound": "CCS(=O)(=O)N1CCN(c2ccc(Nc3ncc(C(N)=O)c(NC4CC4)n3)cc2)CC1 [Cerdulatinib] (top concentration 10000 nM)",
    "Assigned Label": "class 0"
  },
  {
    "Compound": "Cc1nc(Nc2n[nH]c3c2CN(C(=O)N[C@H](CN(C)C)c2ccccc2)C3(C)C)c2sccc2n1 (top concentration 10000 nM)",
    "Assigned Label": "class 1"
  },
  {
    "Compound": "CN(Cc1cnc2nc(N)nc(N)c2n1)c1ccc(C(=O)N[C@@H](CCC(=O)O)C(=O)O)cc1 [Methotrexate] (top concentration 5000 nM)",
    "Assigned Label": "class 0"
  },
  {
    "Compound": "CCNc1nc(Nc2cc(F)c(C(=O)N3CCOCC3)cc2OC)ncc1C(F)(F)F [GNE-7915] (top concentration 1000 nM)",
    "Assigned Label": "class 0"
  },
  {
    "Compound": "C[C@H]1C[C@@H](n2c(Nc3ccc(OC(F)(F)F)cc3)nc3cc(CCC(=O)O)ccc32)CC(C)(C)C1 (top concentration 10000 nM)",
    "Assigned Label": "class 1"
  }
]
